# targetSystem: Amine oxidase [flavin-containing] A (Homo sapiens, UniProt P21397)
# Sequence (P21397 whole entry): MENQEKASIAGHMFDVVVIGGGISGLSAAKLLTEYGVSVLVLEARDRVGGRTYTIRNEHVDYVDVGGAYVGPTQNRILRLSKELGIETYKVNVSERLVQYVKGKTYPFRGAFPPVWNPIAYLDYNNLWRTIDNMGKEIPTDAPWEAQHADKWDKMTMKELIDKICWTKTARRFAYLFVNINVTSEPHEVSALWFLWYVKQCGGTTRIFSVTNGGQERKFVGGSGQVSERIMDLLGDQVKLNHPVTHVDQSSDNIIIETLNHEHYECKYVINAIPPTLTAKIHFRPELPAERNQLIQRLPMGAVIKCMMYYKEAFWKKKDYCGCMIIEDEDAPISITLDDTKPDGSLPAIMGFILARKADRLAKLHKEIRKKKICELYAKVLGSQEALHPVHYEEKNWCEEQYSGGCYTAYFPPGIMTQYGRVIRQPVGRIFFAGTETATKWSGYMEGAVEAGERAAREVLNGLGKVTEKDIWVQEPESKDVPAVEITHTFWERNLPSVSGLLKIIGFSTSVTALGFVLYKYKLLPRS
# experimentSummary: Inhibition of human recombinant MAOA using kynuramine as substrate by fluorescence assay
IC50 less than 20 µM is Satisfied; IC50 greater than or equal to 20 µM is Not satisfied.

* Cn1c(=O)c2c(nc(SCc3ccc(Cl)cc3)n2C)n(C)c1=O | Satisfied
* Cn1c(=O)c2c(nc(NCCCCc3ccccc3)n2C)n(C)c1=O | Not satisfied
* Cn1c(=O)c2c(nc(SC3CCCCC3)n2C)n(C)c1=O | Not satisfied
* CN(CCCCc1ccccc1)c1nc2c(c(=O)n(C)c(=O)n2C)n1C | Not satisfied
* Cn1c(=O)c2c(nc(NCCc3ccccc3)n2C)n(C)c1=O | Not satisfied
* CC(C)CCSc1nc2c(c(=O)n(C)c(=O)n2C)n1C | Satisfied
* CN(CCc1ccccc1)c1nc2c(c(=O)n(C)c(=O)n2C)n1C | Not satisfied
* Cn1c(=O)c2c(nc(SC3CCCC3)n2C)n(C)c1=O | Satisfied
* Cn1c(=O)c2c(nc(SCc3ccc(Br)cc3)n2C)n(C)c1=O | Satisfied
* Cn1c(=O)c2c(nc(SCCOc3ccccc3)n2C)n(C)c1=O | Satisfied

====

# Species: Homo sapiens
# experimentSummary: Selectivity ratio, ratio of IC50 for human recombinant MAOA to IC50 for human recombinant MAOB
Binning rule for recorded Ratio IC50: low (below 3), middle (3 to below 10), high (10 or more)

- Cn1c(=O)c2c(nc(SCCc3ccccc3)n2C)n(C)c1=O: high
- Cn1c(=O)c2c(nc(SCc3ccc(Br)cc3)n2C)n(C)c1=O: high
- Cn1c(=O)c2c(nc(NCCc3ccccc3)n2C)n(C)c1=O: low
- Cn1c(=O)c2c(nc(SC3CCCCC3)n2C)n(C)c1=O: low
- Cn1c(=O)c2c(nc(SCc3ccccc3)n2C)n(C)c1=O: middle
- Cn1c(=O)c2c(nc(SC3CCCC3)n2C)n(C)c1=O: low
- CN(CCCCc1ccccc1)c1nc2c(c(=O)n(C)c(=O)n2C)n1C: high
- CN(CCc1ccccc1)c1nc2c(c(=O)n(C)c(=O)n2C)n1C: middle
- Cn1c(=O)c2c(nc(Sc3ccc4ccccc4c3)n2C)n(C)c1=O: low
- Cn1c(=O)c2c(nc(SCCOc3ccccc3)n2C)n(C)c1=O: high
- Cn1c(=O)c2c(nc(NCCCCc3ccccc3)n2C)n(C)c1=O: middle
- CC(C)CCSc1nc2c(c(=O)n(C)c(=O)n2C)n1C: middle
- Cn1c(=O)c2c(nc(NCCc3cccc(Cl)c3)n2C)n(C)c1=O: low
- Cn1c(=O)c2c(nc(Sc3ccccc3)n2C)n(C)c1=O: low
- Cn1c(=O)c2c(nc(SCc3ccc(Cl)cc3)n2C)n(C)c1=O: high
- Cn1c(=O)c2c(nc(SCc3ccc(F)cc3)n2C)n(C)c1=O: high

====

# targetSystem: Amine oxidase [flavin-containing] B (Homo sapiens)
# Sequence (P27338 whole entry): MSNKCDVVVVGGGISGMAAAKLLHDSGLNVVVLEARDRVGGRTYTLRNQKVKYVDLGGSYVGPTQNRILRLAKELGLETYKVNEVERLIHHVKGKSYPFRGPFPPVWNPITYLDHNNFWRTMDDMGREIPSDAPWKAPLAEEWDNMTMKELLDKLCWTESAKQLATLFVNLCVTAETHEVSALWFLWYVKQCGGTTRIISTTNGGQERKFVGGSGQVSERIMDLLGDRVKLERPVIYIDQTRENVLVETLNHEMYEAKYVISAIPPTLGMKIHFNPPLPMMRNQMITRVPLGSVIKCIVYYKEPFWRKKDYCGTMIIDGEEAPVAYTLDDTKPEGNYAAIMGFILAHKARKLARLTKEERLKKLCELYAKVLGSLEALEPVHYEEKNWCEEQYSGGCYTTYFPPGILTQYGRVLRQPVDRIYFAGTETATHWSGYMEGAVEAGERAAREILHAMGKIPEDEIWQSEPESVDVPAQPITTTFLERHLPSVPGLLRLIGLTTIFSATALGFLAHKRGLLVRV
# experimentSummary: Inhibition of human recombinant MAOB using kynuramine as substrate by fluorescence assay
pIC50: −log10 of the molar value.
Label true (1) when pIC50 is at or above 6; otherwise label false (0).

- Cn1c(=O)c2c(nc(NCCc3ccccc3)n2C)n(C)c1=O: false (0)
- Cn1c(=O)c2c(nc(NCCc3ccccn3)n2C)n(C)c1=O: false (0)
- Cn1c(=O)c2c(nc(SC3CCCCC3)n2C)n(C)c1=O: false (0)
- Cn1c(=O)c2c(nc(SCCOc3ccccc3)n2C)n(C)c1=O: true (1)
- CC(C)CCSc1nc2c(c(=O)n(C)c(=O)n2C)n1C: false (0)
- Cn1c(=O)c2c(nc(SC3CCCC3)n2C)n(C)c1=O: false (0)
- Cn1c(=O)c2c(nc(SCc3ccc(Br)cc3)n2C)n(C)c1=O: true (1)
- Cn1c(=O)c2c(nc(SCc3ccc(Cl)cc3)n2C)n(C)c1=O: true (1)
- Cn1c(=O)c2c(nc(SCc3ccccc3)n2C)n(C)c1=O: false (0)
- Cn1c(=O)c2c(nc(SCCc3ccccc3)n2C)n(C)c1=O: true (1)
- Cn1c(=O)c2c(nc(SCc3ccc(F)cc3)n2C)n(C)c1=O: true (1)
